experiment: Longer term cytotoxicity, 12 days, MTS, HuH7; details: human
measured-attribute: CC50 at 12 days (µM)

smiles_structure=CO[P@](=O)(c1cc(C)cc(/C=C/C#N)c1)c1c(C(N)=O)[nH]c2ccc(Cl)c(F)c12 measured_attribute="CC50 at 12 days" obs_value=23.5

---

assay: Compound depletion in hepatocytes, dog; assay type: in vitro ADME; conditions: hepatocytes, up to 2 hours, read-out: t½, Compound Depletion in Hepatocytes, Dog
measured-attribute: half-life at 1 μM (min)

smiles_structure=CO[P@](=O)(c1cc(C)cc(/C=C/C#N)c1)c1c(C(N)=O)[nH]c2ccc(Cl)c(F)c12 obs_value=28

---

target: UniProt P10635; test: Recombinant CYP450 inhibition, fluorometric, CYP2D6; type: in vitro ADME; set-up: from tissue; host or cells: pooled human liver microsomes; conditions: recombinant enzyme, read-out: percentage of inhibition at the highest concentration tested, CYP2D6
Sequence (P10635 whole entry): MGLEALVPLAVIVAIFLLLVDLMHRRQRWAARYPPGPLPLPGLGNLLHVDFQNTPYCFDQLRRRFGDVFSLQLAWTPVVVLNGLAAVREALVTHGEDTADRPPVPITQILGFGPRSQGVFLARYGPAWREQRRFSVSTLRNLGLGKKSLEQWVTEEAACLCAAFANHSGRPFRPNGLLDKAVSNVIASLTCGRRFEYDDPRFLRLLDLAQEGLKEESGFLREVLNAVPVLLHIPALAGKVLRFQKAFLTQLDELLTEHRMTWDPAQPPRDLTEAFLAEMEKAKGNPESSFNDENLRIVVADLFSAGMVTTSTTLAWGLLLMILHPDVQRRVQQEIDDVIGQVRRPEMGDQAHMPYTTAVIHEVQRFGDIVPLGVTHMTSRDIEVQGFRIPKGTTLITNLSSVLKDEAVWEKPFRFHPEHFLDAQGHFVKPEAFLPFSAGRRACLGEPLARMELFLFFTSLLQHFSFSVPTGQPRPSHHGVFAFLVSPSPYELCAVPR
# key: entry, value: inhibition at 10 µM
measured-attribute: inhibition at 10 µM

compound="CO[P@](=O)(c1cc(C)cc(/C=C/C#N)c1)c1c(C(N)=O)[nH]c2ccc(Cl)c(F)c12 [Compound I]" obs_value=11.2%
compound="COP(=O)(c1cc(C)cc(/C=C/C#N)c1)c1c(C(N)=O)[nH]c2ccc(Cl)cc12 (racemic) [rac (III + IV)]" obs_value="16 to 23%"

---

# key: entry, value: pIC50
target: CYP2C8 (Homo sapiens); test: Human liver microsomal CYP450 inhibition, CYP2C8; settings: human, pooled human liver microsomes, probe paclitaxel
Sequence (P10632 whole entry): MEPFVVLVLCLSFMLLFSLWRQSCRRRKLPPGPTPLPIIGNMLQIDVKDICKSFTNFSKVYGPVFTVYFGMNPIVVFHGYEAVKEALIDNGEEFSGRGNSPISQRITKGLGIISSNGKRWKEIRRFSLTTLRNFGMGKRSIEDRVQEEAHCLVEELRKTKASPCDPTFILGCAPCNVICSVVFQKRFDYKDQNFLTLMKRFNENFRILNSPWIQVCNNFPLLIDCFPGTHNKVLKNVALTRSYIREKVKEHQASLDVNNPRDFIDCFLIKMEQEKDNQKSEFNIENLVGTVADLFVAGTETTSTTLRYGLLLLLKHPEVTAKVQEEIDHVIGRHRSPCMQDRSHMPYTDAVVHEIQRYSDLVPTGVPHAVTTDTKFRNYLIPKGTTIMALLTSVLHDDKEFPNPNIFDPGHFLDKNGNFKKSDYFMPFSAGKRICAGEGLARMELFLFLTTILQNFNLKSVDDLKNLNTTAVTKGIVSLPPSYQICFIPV
pIC50: −log10 of the molar value.
measured-attribute: pIC50

molecule="CO[P@](=O)(c1cc(C)cc(/C=C/C#N)c1)c1c(C(N)=O)[nH]c2ccc(Cl)cc12 [Compound III]" obs_value="> 5.00"
molecule="CO[P@](=O)(c1cc(C)cc(/C=C/C#N)c1)c1c(C(N)=O)[nH]c2ccc(Cl)c(F)c12 [Compound I]" obs_value="> 5.00"

---

assay: Cellular cytotoxicity, 4 days, MTS, H9; format: cell-based; conditions: human, Table 21, read-out: Average CC50 Values ± Standard Deviation, H9
measured-attribute: CC50 at 4 days (µM)

compound="CO[P@](=O)(c1cc(C)cc(/C=C/C#N)c1)c1c(C(N)=O)[nH]c2ccc(Cl)c(F)c12 [Compound I]" measured_attribute="CC50 at 4 days" obs_value=20

---

assay: Compound depletion in hepatocytes, rat; type: in vitro ADME; conditions: hepatocytes, up to 2 hours, read-out: t½, Compound Depletion in Hepatocytes, Rat
measured-attribute: half-life at 1 μM (min)

compound="CO[P@](=O)(c1cc(C)cc(/C=C/C#N)c1)c1c(C(N)=O)[nH]c2ccc(Cl)c(F)c12 [Compound I]" measured_attribute="half-life at 1 μM" obs_value=33

---

test system: HIV-1 IIIB in U937 cells; assay: Drug susceptibility assay, IIIB in U937 cells; assay type: cell-based; details: Human immunodeficiency virus 1, IIIB, U-937; Table 17; read-out: Average EC50 Values ± Standard Deviation, host U937, virus IIIB
pEC50: −log10 of the molar value.
# key: entry, value: pEC50
measured-attribute: pEC50

compound=CO[P@](=O)(c1cc(C)cc(/C=C/C#N)c1)c1c(C(N)=O)[nH]c2ccc(Cl)cc12 measured_attribute=pEC50 obs_value=9.30
compound="O=C1Nc2ccc(Cl)cc2C(C#CC2CC2)(C(F)(F)F)O1 (centres unmarked) [EFV, reference compound]" measured_attribute=pEC50 obs_value=8.82
